Target: T1, B7-DC (Mus musculus, UniProt Q9WUL5)
T1 sequence (membrane protein, looked up): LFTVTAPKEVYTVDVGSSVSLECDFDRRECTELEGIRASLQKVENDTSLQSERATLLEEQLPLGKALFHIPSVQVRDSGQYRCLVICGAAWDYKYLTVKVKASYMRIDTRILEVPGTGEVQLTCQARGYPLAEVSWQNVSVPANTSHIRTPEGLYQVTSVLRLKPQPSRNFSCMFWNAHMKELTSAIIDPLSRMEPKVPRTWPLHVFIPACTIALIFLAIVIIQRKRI
Assay: CDS well image, 293T cells transfected with the mouse gene, stained with the mouse fusion protein
Recorded Endpoint: binding result

| Binder | Recorded Measurement |
| --- | --- |
| B7-DCIg (Fc fusion, Mus musculus, UniProt Q9WUL5 20-219, looked up, Ig fusion protein purchased from R&D systems; also called mouse B7-DCIg fusion protein) fusion protein: LFTVTAPKEVYTVDVGSSVSLECDFDRRECTELEGIRASLQKVENDTSLQSERATLLEEQLPLGKALFHIPSVQVRDSGQYRCLVICGAAWDYKYLTVKVKASYMRIDTRILEVPGTGEVQLTCQARGYPLAEVSWQNVSVPANTSHIRTPEGLYQVTSVLRLKPQPSRNFSCMFWNAHMKELTSAIIDPLSRMEPKVPR | no binding |
| mouse CD28Ig fusion protein (Fc fusion, UniProt P31041 20-149, looked up, Bought from R&D Systems; Ig (Fc) part not given) NKILVKQSPLLVVDSNEVSLSCRYSYNLLAKEFRASLYKGVNSDVEVCVGNGNFTYQPQFRSNAEFNCDGDFDNETVTFRLWNLHVNHTDIYFCKIEFMYPPPYLDNERSNGTIIHIKEKHLCHTQSSPK | no binding |
| PD-1Ig (Fc fusion, Mus musculus, UniProt Q02242 25-167, looked up, Ig fusion protein purchased from R&D systems; also called mouse PD-1Ig fusion protein) fusion protein: LEVPNGPWRSLTFYPAWLTVSEGANATFTCSLSNWSEDLMLNWNRLSPSNQTEKQAAFCNGLSQPVQDARFQIIQLPNRHDFHMNILDTRRNDSGIYLCGAISLHPKAKIEESPGAELVVTERILETSTRYPSPSPKPEGRFQ | binds |
| B7-1Ig (Fc fusion, also called mouse B7-1Ig fusion protein; not shown: Ig (Fc) part and any linker of the R&D Systems fusion protein) VDEQLSKSVKDKVLLPCRYNSPHEDESEDRIYWQKHDKVVLSVIAGKLKVWPEYKNRTLYDNTTYSLIILGLVLSDRGTYSCVVQKKERGTYEVKHLALVKLSIKADFSTPNITESGNPSADTKRITCFASGGFPKPRFSWLENGRELPGINTTISQDPESELYTISSQLDFNTTRNHTIKCLIKYGDAHVSEDFTWEKPPEDPPDSKN | no binding |
